Provide the recorded Percent Growth for the entries that follow.
Tested on: OVCAR-8
TEST: panel of 60 human tumor cell lines, growth inhibition (Ovarian Cancer)
EXPERIMENTAL_CONTEXT: OVCAR-8; Log10 Concentration −6.0
Give bare numbers, in %.

Known results for compounds:
# COMPOUND, UNIT_TEXT, Percent Growth
rows = [
    ("C=C1C(=O)O[C@H]2[C@H]1CC/C(COC(=O)CCC(=O)N1CCC(C)CC1)=C\\CC[C@@]1(C)O[C@@H]21 [JVM 2-70]", "%", 89),
    ("C=C1C(=O)O[C@H]2[C@H]1CC/C(COC(=O)N1CCC(F)(F)CC1)=C\\CC[C@@]1(C)O[C@@H]21 [JVM 2-66]", "%", 91),
    ("C=C1C(=O)O[C@H]2[C@H]1CC/C(COC(=O)N1CCN(C)CC1)=C\\CC[C@@]1(C)O[C@@H]21 [JVM 2-44]", "%", 98),
]

Turning to the following compound.
## Input Given C=C1C(=O)O[C@H]2[C@H]1CC/C(COC(=O)NCCN1CCCCC1)=C\CC[C@@]1(C)O[C@@H]21 [JVM 2-13] , state its recorded Percent Growth.
## Output 93

The measurements presented in this section are drawn from patent US9469650B2.
